B1: ZBTB22 (parent)
chain: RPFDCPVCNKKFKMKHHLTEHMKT

Variants of: B1
Assay: protein stability index of a GFP-peptide fusion (GPS, HEK-293T) (PSI 1-6); higher = more stable;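 further: lentivirally expressed fusions sorted by FACS into six bins by GFP to DsRed ratio, PSI derived from sequencing read proportions per bin multiplied by bin number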
Conditions: c terminus: a fixed tail appended
reported-metric: protein stability index
I only need the number, thanks.

mutation-id	reported-metric	assay-result
E20R	protein stability index	3.45
V7N	protein stability index	2.48
C5V	protein stability index	2.61
M22H	protein stability index	2.75
P6T	protein stability index	2.45
K23R	protein stability index	2.26

Return protein stability index (reported value) for this variant: K10D 2.43

Complete the entry with protein stability index for E20H 2.44

Look up protein stability index of M14W and report it. 2.26

Entry N9Q needs its protein stability index filled in; supply it. 2.33

Note down protein stability index recorded for K23I 2.38

Return protein stability index for the following variant: M22P 2.48

Tell me its protein stability index given K11T as the entry. 2.91
